System: Mus musculus
PROTOCOL SUMMARY: Hypothermic activity in ip dosed albino CF1 mouse assessed as effect on body temperature measured after 45 mins
Type: functional
APPLIED CONDITIONS: 0.75 h
VALUE TYPE: ED50

Here is how some compounds turned out for ED50.
>  <COMPOUND>
CN(C)CCOc1nnc2n1-c1ccc(Cl)cc1C(c1ccccc1)=NC2

>  <VALUE TYPE>
ED50

>  <OBSERVED>
> 50 mg/kg

$$$$
>  <COMPOUND>
COc1nnc2n1-c1ccc(Cl)cc1C(c1ccccc1)=NC2

>  <VALUE TYPE>
ED50

>  <OBSERVED>
10 mg/kg

$$$$
>  <COMPOUND>
OCc1nnc2n1-c1ccc(Cl)cc1C(c1ccccc1)=NC2

>  <VALUE TYPE>
ED50

>  <OBSERVED>
> 50 mg/kg

$$$$
>  <COMPOUND>
CC1N=C(c2ccccc2)c2cc(Cl)ccc2-n2c1nnc2N1CCN(C)CC1 (centres undefined)

>  <VALUE TYPE>
ED50

>  <OBSERVED>
29.7 mg/kg

$$$$
>  <COMPOUND>
CN(C)C(=O)Cc1nnc2n1-c1ccc(Cl)cc1C(c1ccccc1)=NC2

>  <VALUE TYPE>
ED50

>  <OBSERVED>
> 50 mg/kg

$$$$

compound N#CCc1nnc2n1-c1ccc(Cl)cc1C(c1ccccc1)=NC2 , ED50 observed: > 50 mg/kg

compound OCCN1CCN(c2nnc3n2-c2ccc(Cl)cc2C(c2ccccc2)=NC3)CC1 , ED50 observed: > 50 mg/kg

compound COCc1nnc2n1-c1ccc(Cl)cc1C(c1ccccc1)=NC2 , ED50 observed: 30 mg/kg

compound COC(=O)Cc1nnc2n1-c1ccc(Cl)cc1C(c1ccccc1)=NC2 , ED50 observed: > 50 mg/kg

Values compiled from ChEMBL document CHEMBL3244037.
